- Assay type: physicochemical
- measurement.conditions: stored at room temperature (21-25° C.), day 420
Could you label it Yes if measured Stability in Powder Concentrate (content by LCMSMS) is 1 mg/g powder or higher, and No otherwise?

{"compound": "Cc1c(C)c2c(c(C)c1O)CC[C@@](C)(CCC[C@H](C)CCC[C@H](C)CCCC(C)C)O2 [α-Tocopherol]", "label.class": "Yes"}
{"compound": "CCCCCc1cc(O)c(C/C=C(\\C)CCC=C(C)C)c(O)c1 [CBG, cannabigerol]", "label.class": "Yes"}
{"compound": "CCCCCc1cc2c(c(O)c1C(=O)O)[C@@H]1C=C(C)CC[C@H]1C(C)(C)O2 [D9 THCA, delta-9-tetrahydrocannabinolic acid]", "label.class": "No"}
{"compound": "CCCCCc1cc(O)c2c(c1)OC1(C)CCC3C1C2C3(C)C (stereo not shown) [CBL, cannabicyclol]", "label.class": "No"}
{"compound": "C=C(C)[C@@H]1CCC(C)=C[C@H]1c1c(O)cc(CCCCC)cc1O [CBD, cannabidiol, reference compound]", "label.class": "Yes"}
{"compound": "CCCc1cc(O)c2c(c1)OC(C)(C)[C@@H]1CCC(C)=C[C@@H]21 [THCV, delta-9-tetrahydrocannabivarin]", "label.class": "No"}
{"compound": "C=C(C)[C@@H]1CCC(C)=C[C@H]1c1c(O)cc(CCC)cc1O [CBDV, cannabidivarin]", "label.class": "No"}
{"compound": "CCCCCc1cc(O)c2c(c1)OC(C)(CCC=C(C)C)C=C2 (stereo not shown) [CBC, cannabichromene]", "label.class": "No"}
{"compound": "CC(=O)Oc1c(C)c(C)c2c(c1C)CCC(C)(CCC[C@H](C)CCC[C@H](C)CCCC(C)C)O2 (stereo partly drawn) [α-Tocopheryl acetate]", "label.class": "Yes"}
{"compound": "CCCCCc1cc(O)c2c(c1)OC(C)(C)[C@@H]1CCC(C)=C[C@@H]21 [D9 THC, delta-9-tetrahydrocannabinol, reference compound]", "label.class": "Yes"}
{"compound": "CCCCCc1cc(O)c2c(c1)OC(C)(C)c1ccc(C)cc1-2 [CBN, cannabinol]", "label.class": "No"}
{"compound": "C=C(C)[C@@H]1CCC(C)=C[C@H]1c1c(O)cc(CCCCC)c(C(=O)O)c1O [CBDA, cannabidiolic acid]", "label.class": "No"}
{"compound": "Cc1c(C)c2c(c(C)c1OC(=O)CCC(=O)O)CC[C@@](C)(CCC[C@H](C)CCC[C@H](C)CCCC(C)C)O2 [α-Tocopheryl succinate]", "label.class": "Yes"}

* * *

- protocol.description: Stability of cannabinoid and Vitamin E components of Beverage 2 (AB Red) stored at 8° C. and 21-25° C., LCMSMS over 570 days
- measurement.conditions: 21-25° C., 180 days
Entries and their Stability of Cannabinoids in AB Red values follow.
reported.endpoint: Stability of Cannabinoids in AB Red (µg/mL)

{"compound": "CCCCCc1cc(O)c(C/C=C(\\C)CCC=C(C)C)c(O)c1", "reported.endpoint": "Stability of Cannabinoids in AB Red", "reported": 4.53}
{"compound": "C=C(C)[C@@H]1CCC(C)=C[C@H]1c1c(O)cc(CCCCC)c(C(=O)O)c1O", "reported.endpoint": "Stability of Cannabinoids in AB Red", "reported": 1.64}
{"compound": "CCCCCc1cc(O)c2c(c1)OC(C)(C)[C@@H]1CCC(C)=C[C@@H]21 [D9 THC, delta-9-tetrahydrocannabinol, reference compound]", "reported.endpoint": "Stability of Cannabinoids in AB Red", "reported": 12.8}
{"compound": "C=C(C)[C@@H]1CCC(C)=C[C@H]1c1c(O)cc(CCC)cc1O", "reported.endpoint": "Stability of Cannabinoids in AB Red", "reported": 0.20}
{"compound": "CCCCCc1cc(O)c2c(c1)OC(C)(CCC=C(C)C)C=C2 (centres unmarked)", "reported.endpoint": "Stability of Cannabinoids in AB Red", "reported": 0.28}
